Listed here: items and their measured GI50.
System: SK-MEL-28
Test: NCI tumour cell line growth inhibition, 48 h
Activity calls are given as the source filed them. Rule as the data show it: active = GI50 up to about 1.1 µM and inactive = higher.

compound	GI50
CCNC1=C(NC(=O)c2ccccc2)C(=O)c2ccccc2C1=O	39.3 µM (inactive)
C=CCc1ccc(Oc2cc(CC=C)c3c(c2O)O[C@@H](CO)[C@H]3c2ccc(O)c(-c3cc(CC=C)ccc3O)c2)cc1	25.8 µM (inactive)

The value of GI50 measured for the compound [O-][Cl+3]([O-])([O-])[O-].c1ccc(-c2[o+]c(-c3ccccc3)c(-c3ccccc3)c(-c3ccccc3)c2-c2ccccc2)cc1 turned out to be > 100 µM (inactive)

The value of GI50 measured for the compound CC(C)(C)OC(=O)NC(Cc1ccc(OCc2ccccc2)cn1)C(=O)N1CCCCC1 (stereo not given) turned out to be 54.3 µM (inactive)

The value of GI50 measured for the compound COC(C)(C)C1=CCC(C)CC1 (stereo not given) turned out to be > 100 µM (inactive)

The value of GI50 measured for the compound O=C1C=C(Nc2ccc(Cl)cc2Cl)c2ccccc2C1=O turned out to be 59.8 µM (inactive)

The value of GI50 measured for the compound Cc1cc(O)nc(NNC(C#N)c2ccco2)n1 (stereo not given) turned out to be > 100 µM (inactive)

The value of GI50 measured for the compound C=CCCON(C(=O)OC(C)(C)C)C(C)(C)C turned out to be > 100 µM (inactive)

The value of GI50 measured for the compound CC/C(CC(=O)CCC(=O)Nc1ccccc1[N+](=O)[O-])=N/NC(=O)C[n+]1ccccc1 turned out to be > 100 µM (inactive)

The value of GI50 measured for the compound CC12CCC(/C(=N/c3ccc([N+](=O)[O-])cc3)C1=O)C2(C)C (stereo not given) turned out to be 12 µM (inactive)
